TEST_DETAILS: in vivo
TEST_CONTEXT: male, Sprague-Dawley, rat, serum, oral, 100 mg/kg
EXPERIMENTAL_READOUT: concentration at 30 days (µM)
Give bare numbers, in µM.

Prompt line: Would you kindly share the measured concentration at 30 days for O=C(O)CCCC[C@@H]1SC[C@@H]2NC(=O)N[C@@H]21 [Biotin, D-biotin] ?
Response line: 3.52

----------
TEST_DETAILS: Solubility of magnesium D-biotinate
TEST_CONTEXT: water
EXPERIMENTAL_READOUT: Solubility

Prompt line: Fill in: Solubility of O=C(O)CCCC[C@@H]1SC[C@@H]2NC(=O)N[C@@H]21 [magnesium D-biotinate] is ___
Response line: ≥ 10000 µg/mL

----------
TEST_DETAILS: in vivo
TEST_CONTEXT: male, Sprague-Dawley, rat, serum, oral, 0.01 mg/kg
EXPERIMENTAL_READOUT: concentration at 30 days (nM)
Give bare numbers, in nM.

Prompt line: Report concentration at 30 days for O=C(O)CCCC[C@@H]1SC[C@@H]2NC(=O)N[C@@H]21 [Biotin, D-biotin] please.
Response line: 23.6

----------
TEST_DETAILS: Solubility of magnesium D-biotinate
TEST_CONTEXT: Water
EXPERIMENTAL_READOUT: Solubility

Prompt line: Item under review: O=C(O)CCCC[C@@H]1SC[C@@H]2NC(=O)N[C@@H]21 [magnesium D-biotinate] . Reported Solubility?
Response line: ~10000 µg/mL

----------
TEST_DETAILS: in vivo
TEST_CONTEXT: male, Sprague-Dawley, rat, serum, oral, 1 mg/kg
EXPERIMENTAL_READOUT: concentration at 30 days
// return the numeric value with its unit appended

Prompt line: Looking for the measured concentration at 30 days of O=C(O)CCCC[C@@H]1SC[C@@H]2NC(=O)N[C@@H]21 [Biotin, D-biotin] , can you help?
Response line: 137 nM

Cited source: patent US12257238B2
